Target: PPARα (Homo sapiens)
Sequence (Q07869 1-468): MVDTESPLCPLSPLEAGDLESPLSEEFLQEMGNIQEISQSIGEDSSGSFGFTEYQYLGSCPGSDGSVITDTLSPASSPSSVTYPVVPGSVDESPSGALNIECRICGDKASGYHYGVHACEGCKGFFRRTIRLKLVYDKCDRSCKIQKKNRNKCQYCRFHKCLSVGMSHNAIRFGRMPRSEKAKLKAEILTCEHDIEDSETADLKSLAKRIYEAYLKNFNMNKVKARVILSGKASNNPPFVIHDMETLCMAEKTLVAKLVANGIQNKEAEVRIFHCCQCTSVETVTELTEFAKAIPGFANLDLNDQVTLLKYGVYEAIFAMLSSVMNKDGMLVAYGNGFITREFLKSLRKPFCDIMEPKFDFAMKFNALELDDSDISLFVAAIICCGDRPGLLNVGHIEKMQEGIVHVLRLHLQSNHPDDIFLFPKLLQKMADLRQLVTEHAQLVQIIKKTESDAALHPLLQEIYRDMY
Assay: luciferase-based promoter assay of PPARα activation
pEC50: −log10 of the molar value.

compound	pEC50
Cc1c(Cl)ccc2c(C(=O)O)cc(-c3ccccc3)nc12 [NCI8]	4.30
